Target: D(2) dopamine receptor (Homo sapiens) (UniProt P14416)
Sequence (P14416 whole entry, looked up): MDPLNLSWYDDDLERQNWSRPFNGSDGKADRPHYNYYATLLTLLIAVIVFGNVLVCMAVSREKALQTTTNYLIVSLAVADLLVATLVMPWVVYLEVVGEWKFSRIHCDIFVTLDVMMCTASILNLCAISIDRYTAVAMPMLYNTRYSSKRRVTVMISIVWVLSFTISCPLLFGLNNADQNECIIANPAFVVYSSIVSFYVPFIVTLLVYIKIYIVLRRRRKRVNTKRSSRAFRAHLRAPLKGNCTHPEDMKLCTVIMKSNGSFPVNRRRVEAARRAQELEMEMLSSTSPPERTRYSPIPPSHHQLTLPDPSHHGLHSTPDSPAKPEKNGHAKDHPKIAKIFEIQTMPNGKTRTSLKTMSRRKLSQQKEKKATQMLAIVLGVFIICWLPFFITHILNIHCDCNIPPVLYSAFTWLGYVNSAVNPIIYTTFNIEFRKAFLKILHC
Test: HTS Assay for Allosteric Antagonists of the Human D2 Dopamine Receptor: Primary Screen for Antagonists; also: 0% is about no effect
Conditions: HEK293 TREx D2 cells, calcium flux, dopamine EC80; at 10 µM
In all, about 340,000 compounds went through this assay and about 6,900 (2%) were called active. Rule as the data show it: active = inhibition above about 30%; inactive = below that, where a call was filed. The sample as a whole holds a higher share of actives than the screen did.
Classes used: 1 for active, 0 for inactive

Molecule | Qualitative Label
CCN1C(=O)/C(=C\N2CCN(c3cccc(Cl)c3)CC2)SC1=S | 0
CC(=O)c1cccc(NC(=O)CN2C(=O)c3cccnc3Oc3ccc(Cl)cc32)c1 | 0
COc1ccc(Cn2nnc3c(=O)[nH]c(C4CCN(C(=O)c5ccccc5Cl)CC4)nc32)cc1 | 0
O=C(c1ccco1)N1CCN(CCOc2ccccc2)CC1 | 1
O=C(CN1C(=O)c2cccnc2Oc2ccc(Cl)cc21)Nc1ccc(F)cc1 | 1
C[C@H](OC(=O)n1ccnc1)[C@@H]1O[C@@]2(C)CCC[C@@H]1O2 | 0
O=C(c1ccco1)N1CCN(C(=S)Nc2cc(F)cc(F)c2)CC1 | 0
COC(c1ccccc1)c1nnc(CCC(=O)N2CCN(CCOc3ccccc3)CC2)o1 (stereo not given) | 0
CCC1CCC2(CC1)NC(=O)N(CC(=O)Nc1ccc(OC)cc1)C2=O (stereo not given) | 0
Cc1nn(CCOc2ccccc2)c(=O)n1-c1ccccc1F | 0
